Data origin: the Immune Epitope Database (IEDB)

Target: HLA-A*24:03
Assay: IEDB peptide-MHC binding, purified MHC/direct/fluorescence; filed as Kd, often an IC50 or EC50 that approximates it; bounds were set here for any values at or beyond the usual limits of such assays
Details: source organism: Vibrio cholerae
pKd: −log10 of the molar value.
property: pKd

RFNNLTVYF :: 8.48

###

Biological target: HLA-B*83:01
Test: IEDB peptide-MHC binding, purified MHC/competitive/fluorescence; filed as Kd, often an IC50 or EC50 that approximates it; bounds were set here for any values at or beyond the usual limits of such assays
Details: source organism: Cryptosporidium parvum Iowa II
property: Kd (nM)

MPMSMPIPM :: 39.5

###

Target: HLA-A*68:23
Experiment: IEDB peptide-MHC binding, purified MHC/competitive/fluorescence; filed as Kd, often an IC50 or EC50 that approximates it; bounds were set here for any values at or beyond the usual limits of such assays
Conditions: source organism: Salmonella enterica subsp. enterica serovar Typhimurium str. LT2
property: Kd (nM)

FPASHMATY :: 6

###

Target: HLA-B*44:02
Experiment: IEDB peptide-MHC binding, purified MHC/competitive/fluorescence; filed as Kd, often an IC50 or EC50 that approximates it; bounds were set here for any values at or beyond the usual limits of such assays
Conditions: source organism: Vibrio vulnificus YJ016
property: Kd

SVFELSNFA :: ≥ 5 µM

###

Biological target: HLA-A*68:02
Experiment: IEDB peptide-MHC binding, purified MHC/competitive/fluorescence; filed as Kd, often an IC50 or EC50 that approximates it; bounds were set here for any values at or beyond the usual limits of such assays
Settings: source organism: Entamoeba histolytica HM-1:IMSS
property: Kd

IGKMNKHYK :: ≥ 20 µM

###

Molecular target: HLA-A*02:11
Assay: IEDB peptide-MHC binding, purified MHC/direct/fluorescence; filed as Kd, often an IC50 or EC50 that approximates it; bounds were set here for any values at or beyond the usual limits of such assays
Conditions: source organism: Influenza A virus(A/swine/Shandong/fNY/2003(H9N2))
pKd: −log10 of the molar value.
property: pKd

VSPLAVTWW :: 7.49

###

Molecular target: HLA-A*02:01
Experiment: IEDB peptide-MHC binding, purified MHC/competitive/fluorescence; filed as Kd, often an IC50 or EC50 that approximates it; bounds were set here for any values at or beyond the usual limits of such assays
Settings: source organism: Rickettsia bellii RML369-C
property: Kd

AKIALAVYK :: ≥ 20 µM

###

Target: HLA-B*40:01
Experiment: IEDB peptide-MHC binding, purified MHC/competitive/fluorescence; filed as Kd, often an IC50 or EC50 that approximates it; bounds were set here for any values at or beyond the usual limits of such assays
Details: source organism: Escherichia coli 536
pKd: −log10 of the molar value.
property: pKd

YEDEDIIVI :: 8.37

###

Molecular target: HLA-C*06:02
Assay: IEDB peptide-MHC binding, purified MHC/competitive/fluorescence; filed as Kd, often an IC50 or EC50 that approximates it; bounds were set here for any values at or beyond the usual limits of such assays
Settings: source organism: Methylibium petroleiphilum PM1
pKd: −log10 of the molar value.
property: pKd

FQMGGIGPM :: 6.29

###

Biological target: HLA-B*27:03
Experiment: IEDB peptide-MHC binding, purified MHC/competitive/fluorescence; filed as Kd, often an IC50 or EC50 that approximates it; bounds were set here for any values at or beyond the usual limits of such assays
Details: source organism: Giardia lamblia ATCC 50803
property: Kd

APDGFYPFK :: ≥ 20 µM

###

Molecular target: HLA-B*46:01
Assay: IEDB peptide-MHC binding, purified MHC/direct/fluorescence; filed as Kd, often an IC50 or EC50 that approximates it; bounds were set here for any values at or beyond the usual limits of such assays
Conditions: source organism: Influenza A virus (A/Viet Nam/HN/2004(H5N1))
property: Kd

VSPLAVTWW :: ≥ 20 µM

###

Target: HLA-A*02:19
Assay: IEDB peptide-MHC binding, purified MHC/direct/fluorescence; filed as Kd, often an IC50 or EC50 that approximates it; bounds were set here for any values at or beyond the usual limits of such assays
Details: source organism: Zaire ebolavirus
pKd: −log10 of the molar value.
Measured pKd values are reported for all entries that follow.
property: pKd

KVYWAGIEF :: ≤ 4.70
SQVRVPTVF :: ≤ 4.70
IFLKPDETF :: ≤ 4.70

###

Molecular target: HLA-B*15:42
Assay: IEDB peptide-MHC binding, purified MHC/competitive/fluorescence; filed as Kd, often an IC50 or EC50 that approximates it; bounds were set here for any values at or beyond the usual limits of such assays
Conditions: source organism: Salmonella enterica subsp. enterica serovar Typhimurium str. LT2
pKd: −log10 of the molar value.
property: pKd

FPASHMATY :: ≤ 5.30

###

Target: HLA-A*02:12
Assay: IEDB peptide-MHC binding, purified MHC/direct/fluorescence; filed as Kd, often an IC50 or EC50 that approximates it; bounds were set here for any values at or beyond the usual limits of such assays
Settings: source organism: Araucaria virus
property: Kd

WKAIGAYIL :: ≥ 20 µM

###

Molecular target: HLA-A*26:01
Assay: IEDB peptide-MHC binding, purified MHC/direct/fluorescence; filed as Kd, often an IC50 or EC50 that approximates it; bounds were set here for any values at or beyond the usual limits of such assays
Conditions: source organism: Yersinia pestis Antiqua
pKd: −log10 of the molar value.
property: pKd

FQLYSDLAH :: ≤ 4.70

###

Target: HLA-A*03:01
Test: IEDB peptide-MHC binding, purified MHC/competitive/radioactivity; filed as Kd, often an IC50 or EC50 that approximates it; bounds were set here for any values at or beyond the usual limits of such assays
Details: source organism: Vaccinia virus WR
property: Kd (µM)

MMNRDKIPIY :: 1.03
TIKYSNDNR :: 15.5
SINSEYIESK :: 7.72
TIQRFSSLR :: 5.21
NIILSKIPY :: 1.18
ELALTDVEK :: 1.56
ELVTRKCPQK :: 7.42
FSTSAADIK :: 2.2
ITFLRPVLK :: 0.00453
MSMGDIITY :: 0.134
EMYPRHRYSK :: 0.126
FSNTIQSYK :: 0.0255
KVSAQNISFK :: 5.07
VLPHLCLDY :: 0.102
FVDINRNNK :: 0.281
MSHVKSVTK :: 0.0186
VTGFMEEEIK :: 13.3
IIKSDHEFVK :: 4.27
LFLLFLEITY :: 1.96
LLGDSDSVAK :: 0.203
RFVKFNDYR :: 19.8
TQSVLCVKK :: 1.04
RVVVQIDPEY :: 14.2
ESRPFDLIKK :: 0.236
LMIFISSFLL :: 0.42
NAPIKEFKAK :: 15.6
TIEILRNYLR :: 2.35
TILEYLYIMR :: 8.99
FLKSGAVVK :: 0.0135
LTNKHCLNNY :: 1.38
NVKKKNEGK :: 6.52
ISKIYTLIYR :: 0.691
KLQARNIQK :: 0.00803
PVSMTYLYNK :: 1.19

###

Biological target: HLA-C*15:02
Assay: IEDB peptide-MHC binding, purified MHC/direct/fluorescence; filed as Kd, often an IC50 or EC50 that approximates it; bounds were set here for any values at or beyond the usual limits of such assays
Conditions: source organism: Vibrio cholerae 2740-80
pKd: −log10 of the molar value.
property: pKd

RFNNLTVYF :: ≤ 4.70

###

Target: HLA-A*02:12
Assay: IEDB peptide-MHC binding, purified MHC/direct/fluorescence; filed as Kd, often an IC50 or EC50 that approximates it; bounds were set here for any values at or beyond the usual limits of such assays
Conditions: source organism: Vibrio parahaemolyticus AQ3810
pKd: −log10 of the molar value.
property: pKd

EASTWLDIF :: ≤ 4.70

###

Target: HLA-B*45:06
Experiment: IEDB peptide-MHC binding, purified MHC/competitive/fluorescence; filed as Kd, often an IC50 or EC50 that approximates it; bounds were set here for any values at or beyond the usual limits of such assays
Conditions: source organism: Cryptosporidium parvum Iowa II
property: Kd

MPMSMPIPM :: ≥ 5 µM

###

Biological target: HLA-B*15:01
Assay: IEDB peptide-MHC binding, purified MHC/direct/fluorescence; filed as Kd, often an IC50 or EC50 that approximates it; bounds were set here for any values at or beyond the usual limits of such assays
Conditions: source organism: Burkholderia mallei ATCC 23344
property: Kd

QHAWPLPPL :: ≥ 20 µM

###

Measured pKd values are reported for all entries that follow.
Molecular target: HLA-B*44:02
Test: IEDB peptide-MHC binding, purified MHC/direct/fluorescence; filed as Kd, often an IC50 or EC50 that approximates it; bounds were set here for any values at or beyond the usual limits of such assays
Details: source organism: Vibrio vulnificus
pKd: −log10 of the molar value.
property: pKd

LLTQSNAGF :: ≤ 4.70
DFPIFNQRY :: ≤ 4.70
